Target: KPC-2 (Klebsiella pneumoniae, UniProt Q9F663)
Sequence (Q9F663 25-293, looked up): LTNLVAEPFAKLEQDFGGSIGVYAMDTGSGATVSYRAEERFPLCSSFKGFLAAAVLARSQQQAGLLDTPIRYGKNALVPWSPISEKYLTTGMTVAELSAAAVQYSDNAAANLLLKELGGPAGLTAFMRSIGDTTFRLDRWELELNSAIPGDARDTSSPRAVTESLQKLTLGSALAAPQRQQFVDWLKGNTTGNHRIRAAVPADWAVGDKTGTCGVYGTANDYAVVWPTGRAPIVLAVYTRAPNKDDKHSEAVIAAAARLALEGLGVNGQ
Test: Purified β-lactamase inhibition assay with nitrocefin, KPC-2
Measured endpoint: IC50
# include the unit after the value

query: Note down IC50 recorded for C[C@]1(Cn2ccnn2)[C@H](C(=O)O)N2C(=O)C[C@H]2S1(=O)=O [Tazobactam, tazobactam]
result: 69.6 µM

====

Target: CTX-M-15 (Escherichia coli)
Experiment: Purified β-lactamase inhibition assay with nitrocefin, CTX-M-15
Conditions: Ki, CTX-M-15; nitrocefin substrate
pKi: −log10 of the molar value.
Measured endpoint: pKi

query: Jot down pKi (CTX-M-15 (Escherichia coli)) of "C[C@]1(Cn2ccnn2)[C@H](C(=O)O)N2C(=O)C[C@H]2S1(=O)=O" .
result: ~4.51

====

Molecular target: CTX-M-15 (Escherichia coli, UniProt Q9EXV5)
Sequence (Q9EXV5 29-291): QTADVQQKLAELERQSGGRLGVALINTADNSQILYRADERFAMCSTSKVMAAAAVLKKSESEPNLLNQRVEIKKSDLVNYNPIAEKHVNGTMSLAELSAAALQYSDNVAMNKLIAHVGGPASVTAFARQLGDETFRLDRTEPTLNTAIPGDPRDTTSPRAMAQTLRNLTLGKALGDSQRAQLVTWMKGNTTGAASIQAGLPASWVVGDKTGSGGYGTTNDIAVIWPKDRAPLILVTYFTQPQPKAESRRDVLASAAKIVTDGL
Test: Purified β-lactamase inhibition assay with nitrocefin, CTX-M-15
Measured endpoint: IC50 (µM)
Enter your answer as a number in µM; do not include the unit.

query: Jot down IC50 (CTX-M-15 (Escherichia coli, UniProt Q9EXV5)) of C[C@]1(Cn2ccnn2)[C@H](C(=O)O)N2C(=O)C[C@H]2S1(=O)=O [Tazobactam, tazobactam] .
result: 58.3
